experiment: soluble on expression in E. coli; label from the status in PepcDB or PDB records
metric: soluble on expression in E. coli

Example entries begin here.
TVTSASDQTTTFIQTISPTAIEISKTYDLYASVLLAQAILESSSGQSDLSKAPNYNLFGIKGEYKGKSVQMPTLEDDGKGNMTQIQAPFRAYPNYSASLYDYAELVSSQKYASVWKSNTSSYKDATAALTGLYATDTAYASKLNQIIETYSL = not soluble
GFVGRFGASSATTDRSKIFTADFRDFETSFSFQPGVFWGYDDFLSSALLLDIGYNKDKYELKYTVNGGRLLENYDFNSISFGLFPRLNISFVSIGVGGGIKIPLSLKYSKEGDAYSYNKYSLDFGDIKDSFETFYIPYVKVSLDFLIKTKGKFMMSLGVYANYDFPININRNGLLKDISIDKESIAAFDIGFQIGAYLVNR = not soluble
MQRSLFSKFRQILTYKCDWYGKELILADKTYPSTQRCAKCGYVKTGDEKITLQGNQKHGTKHNEYICYKCDYSNDRDENAVLNLLALARLEHHHHHH = not soluble
MGSDKIHHHHHHMGEVYEKNNIDFDSIAKMLLIKYKDFILSKFKKAAPVENIRFQNLVHTNQFAQGVLGQSQHLCTVYDNPSWHSIVLETLDLDLIYKNVDKEFAKDGHAEGENIYTDYLVKELLRYFKQDFFKWCNKPDCNHCGQNTSENMTPLGSQGPNGEESKFNCGTVEIYKCNRCGNITRFPRYNDPIKLLETRKGRCGEWCNLFTLILKSFGLDVRYVWNREDHVWCEYFSNFLNRWVHVDSCEQSFDQPYIYSINWNKKMSYCIAFGKDGVVDVSKRYILQNELPRDQIKEEDLKFLCQFITKRLRYSLNDDEIYQLACRDEQEQIELIRGKTQETKSESVSAASKSSNRGRESGSADWKAQRGEDGK = not soluble

Now consider a different sequence.
Incoming: For the sequence MGSDKIHHHHHHMNFIKTISPIQKINFNGFEFYIKRDDLLGEINGNKARKLAFYIHQRYPKNQSFVSYGGSQSNALAALSIFAKQRSYKLVFACEKISTFLKNNPCGNYALALENGVDFVENIHSLSLKQFALSLCKKDDVFIEQGIANLEAQYGYMELAQEIQMQSQSLKLDFDIFLPSGTGTSAAFLAKYSKFKVFTCACVGDIKYLKKQILTLDPSYDFSNLEFLTSDKKYHFAKPYKEFYELYMDLKLKCNIEFDLLYDILGLSIALKQEWKKPLLYIHQGGILGNSTMLERYKFKKSV , report soluble on expression in E. coli.
Outgoing: not soluble

====

experiment: soluble on expression in E. coli; label from the status in PepcDB or PDB records
metric: soluble on expression in E. coli

MGSDKIHHHHHHMTENNGFQQHVAKVYREHRGERIVPFEYQGKRYWLKQVEHLAGAMRLLKQNSTAALHKEIGILNTLSHIGAPVPAVVDYGDGYMVVEDVGNTINHLLDHTSQALWQPILNDVSVALAKLHSMQLAHGRPALRDISWQAGEVKFIDFEANQQHKSVVSQQVRDVLVFIHSLYRYIGPNNRMINQAIACYRLAGGEAIWQKAKQFLASWQWLYYFARPFRDFGGKDLKPVYWVLWHFRQAPLTLA = not soluble
MRLKKLPIRRKMPMELAYIEKLFREEVGLDIKEHKDKAEQISETVVEIYEELLRKGIENANYNGRDYVSYYDLPITEDLERYMNRFIQDRGEEVLKAFVDYLAKLEEELLKAEEALPPLDEELHQKKADILGGIMLMFASVAKQINGDRKLYAESIPVTREVLRTMI = not soluble
